# system name: Beta-2 adrenergic receptor (Homo sapiens) (UniProt P07550)
# Sequence (P07550 whole entry, looked up): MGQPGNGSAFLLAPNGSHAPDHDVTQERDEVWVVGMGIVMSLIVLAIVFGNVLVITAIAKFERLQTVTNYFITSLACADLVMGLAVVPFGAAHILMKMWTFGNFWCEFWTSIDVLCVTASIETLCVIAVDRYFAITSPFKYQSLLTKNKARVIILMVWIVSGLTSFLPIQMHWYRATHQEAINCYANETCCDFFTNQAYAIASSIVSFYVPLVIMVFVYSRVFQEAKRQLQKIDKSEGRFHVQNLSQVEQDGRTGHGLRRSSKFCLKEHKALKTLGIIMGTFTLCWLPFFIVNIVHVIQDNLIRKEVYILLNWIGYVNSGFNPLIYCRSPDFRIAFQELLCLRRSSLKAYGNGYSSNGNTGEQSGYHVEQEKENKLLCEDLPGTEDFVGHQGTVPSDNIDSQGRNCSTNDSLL
# test protocol: Adrenergic beta2 receptor (ADRB2) small molecule antagonists, cell-based qHTS assay (AID 1963592); note: % is set by controls: 0 for no effect and ±100 for the full control effect; nearly all actives have a fitted effect of over 50% in size
# experimental parameters: CHO-ADRB2 cells, isoproterenol-stimulated cAMP HTRF ratio, 0.5 h; series mostly up to 92.4 µM
Results filed as inconclusive are left out. Calls of active or inactive are those of the source. Calls come from the whole dose curve.
measurement name: activity change, negative = inhibition

Some solved cases for reference:
# compound, system name, activity change, negative = inhibition
records = [
    ("Cc1c(C)c2c(c(C)c1OC(=O)CCC(=O)OCCO)CC[C@@](C)(CCC[C@H](C)CCC[C@H](C)CCCC(C)C)O2", "Beta-2 adrenergic receptor (Homo sapiens) (UniProt P07550)", "inactive"),
    ("CSc1nc(NC2CC2)nc(NC(C)(C)C)n1", "Beta-2 adrenergic receptor (Homo sapiens) (UniProt P07550)", "inactive"),
    ("C[N+]1(C)[C@@H]2CC(OC(=O)[C@H](CO)c3ccccc3)C[C@H]1[C@@H]1O[C@@H]12 (stereo partly specified)", "Beta-2 adrenergic receptor (Homo sapiens) (UniProt P07550)", "inactive"),
    ("NS(=O)(=O)Cc1noc2ccccc12", "Beta-2 adrenergic receptor (Homo sapiens) (UniProt P07550)", "inactive"),
    ("CCCCCCCCCCCCS(=O)(=O)Cl", "Beta-2 adrenergic receptor (Homo sapiens) (UniProt P07550)", "-6.85% [at 19 µM] (inactive)"),
]

Need activity change, negative = inhibition of "C=C[Si](C)(C)Cl" , thanks.
2.31% [at 8.39 µM] (inactive)

Need activity change, negative = inhibition of "CN(C)CCC[C@@]1(c2ccc(F)cc2)OCc2cc(C#N)ccc21" , thanks.
inactive

----------
# test protocol: Nuclear factor erythroid 2-related factor 2/antioxidant responsive element (Nrf2/ARE) small molecule agonists: luciferase reporter gene qHTS assay in human keratinocytes (AID 1919969); note: % is set by controls: 0 for no effect and ±100 for the full control effect; nearly all actives have a fitted effect of over 35% in size
# experimental parameters: KeratinoSens HaCaT ARE-luciferase, luminescence, 24 h; series mostly up to 92.4 µM
Inconclusive results are not listed. Active and inactive are the calls of the source. The call rests on the fitted dose curve.
Bench note: report the call from label 1 (active), label 0 (inactive)

# compound, answer label
rows = [
    ("COCCO", "label 0"),
]

Returns: the outcome recorded for CCCCOCC(C)O (stereo not drawn) in this assay.
label 0

Returns: the outcome recorded for "NC(=O)C(c1ccccc1)(c1ccccc1)[C@@H]1CCN(CCc2ccc3c(c2)CCO3)C1" in this assay.
label 0

Returns: the outcome recorded for "CCN(CC)CCc1nc(-c2ccccc2)no1" in this assay.
label 0

Returns: the outcome recorded for "CCn1cc(C(=O)O)c(=O)c2cc(F)c(N3CCNCC3)cc21" in this assay.
label 0

Returns: the outcome recorded for CCC(C)(CCCC(C)C)OC(C)=O (stereo not drawn) in this assay.
label 0

Returns: the outcome recorded for "CCCCNS(=O)(=O)c1ccc(C)cc1" in this assay.
label 0

----------
# system name: 5-hydroxytryptamine receptor 2A (Homo sapiens)
# test protocol: 5-hydroxytryptamine receptor 2A (HTR2A) small molecule agonists, cell-based qHTS assay (AID 1963587); note: % is set by controls: 0 for no effect and ±100 for the full control effect; nearly all actives have a fitted effect of over 30% in size
# experimental parameters: HTR2A-CHO cells, calcium flux fluorescence, agonist mode; series mostly up to 76.8 µM
Results filed as inconclusive are left out. Active and inactive are the calls of the source. Calls follow the shape of the full dose curve.
measurement name: activation

# compound, activation
data = [
    ("Nc1cccc(S(=O)(=O)c2cccc(N)c2)c1", "inactive"),
    ("CCCCCCCCCCCCCCCCCC(=O)OCCCCCCCCCCCCCC(C)C", "inactive"),
    ("[O]=[Bi]", "0.438% [at 7.02 µM] (inactive)"),
    ("C#CC(O)CCCCC (stereo not drawn)", "inactive"),
    ("NC(=O)Nc1ccc(Cl)c(Cl)c1", "inactive"),
    ("CCNC(=O)N1CCN(CCCC(c2ccc(F)cc2)c2ccc(F)cc2)CC1", "inactive"),
    ("N[C@@H](CSCCCO)C(=O)O", "0.941% [at 15.9 µM] (inactive)"),
]

Here is another compound to look at.
Need activation of "CCC(=O)c1cccc(Cl)c1" , thanks.
inactive

----------
# system name: Beta-2 adrenergic receptor (Homo sapiens)
# test protocol: Adrenergic beta2 receptor (ADRB2) small molecule agonists, cell-based qHTS assay (AID 1963593);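 for activation: CHO cells stably overexpressing human ADRB2; % is set by controls: 0 for no effect and ±100 for the full control effect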
# experimental parameters: CHO-ADRB2 cells, cAMP HTRF, 30 min; series mostly up to 42.5 µM
Records with an inconclusive call do not appear. The source made the active and inactive calls. The call rests on the fitted dose curve.
measurement name: activation

Some solved cases for reference:
# smi, system name, activation
rows = [
    ("O=c1[nH]c(=O)c2[nH]c(=O)[nH]c2[nH]1", "Beta-2 adrenergic receptor (Homo sapiens)", "11.5% [at 8.39 µM] (inactive)"),
    ("NCCCNCCSP(=O)(O)O", "Beta-2 adrenergic receptor (Homo sapiens)", "-33.3% [at 8.39 µM] (inactive)"),
    ("C[C@@H]1CC[C@@]2(OC1)O[C@H]1C[C@H]3[C@@H]4CC[C@H]5C[C@@H](O)CC[C@]5(C)[C@H]4CC(=O)[C@]3(C)[C@H]1[C@@H]2C", "Beta-2 adrenergic receptor (Homo sapiens)", "3.94% [at 8.39 µM] (inactive)"),
]

Need activation of "NCC[C@H](O)C(=O)N[C@@H]1C[C@H](N)[C@@H](O[C@H]2O[C@H](CN)[C@@H](O)[C@H](O)[C@H]2O)[C@H](O)[C@H]1O[C@H]1O[C@H](CO)[C@@H](O)[C@H](N)[C@H]1O" , thanks.
21.1% [at 0.349 µM] (inactive)

----------
# system name: Beta-2 adrenergic receptor (Homo sapiens)
# test protocol: Adrenergic beta2 receptor (ADRB2) small molecule antagonists, cell-based qHTS assay (AID 1963592); note: % is set by controls: 0 for no effect and ±100 for the full control effect; nearly all actives have a fitted effect of over 50% in size
# experimental parameters: CHO-ADRB2 cells, isoproterenol-stimulated cAMP HTRF ratio, 0.5 h; series mostly up to 92.4 µM
Inconclusive results are not listed. Active and inactive are the calls of the source. Calls follow the shape of the full dose curve.
measurement name: activity change, negative = inhibition

# compound, system name, assay result
measured = [
    ("O=C(O)c1ccc2cc(O)ccc2c1", "Beta-2 adrenergic receptor (Homo sapiens)", "inactive"),
    ("CCCC1CCCC(=O)O1 (stereo unspecified)", "Beta-2 adrenergic receptor (Homo sapiens)", "inactive"),
    ("N[C@H]1C(O)O[C@H](CO)[C@H](O)[C@@H]1O (stereo partly specified)", "Beta-2 adrenergic receptor (Homo sapiens)", "inactive"),
    ("O=C(O)C[C@H](O)C[C@H](O)/C=C/c1c(C2CC2)nc2ccccc2c1-c1ccc(F)cc1", "Beta-2 adrenergic receptor (Homo sapiens)", "-0.968% [at 19 µM] (inactive)"),
    ("CC(C)C/C=C(\\C=O)c1ccccc1", "Beta-2 adrenergic receptor (Homo sapiens)", "inactive"),
]

Need activity change, negative = inhibition of OCC(O)[C@@H](O)[C@H](O)[C@H](O)CO[C@H]1O[C@H](CO)[C@@H](O)[C@H](O)[C@H]1O (stereo partly specified) , thanks.
inactive

----------
# test protocol: Nuclear factor erythroid 2-related factor 2/antioxidant responsive element (Nrf2/ARE) small molecule agonists: luciferase reporter gene qHTS assay in human keratinocytes (AID 1919969); note: % is set by controls: 0 for no effect and ±100 for the full control effect; nearly all actives have a fitted effect of over 35% in size
# experimental parameters: KeratinoSens HaCaT ARE-luciferase, luminescence, 24 h; series mostly up to 92.4 µM
Records with an inconclusive call do not appear. The source made the active and inactive calls. Calls follow the shape of the full dose curve.
Bench note: report the call from 1 = active, -1 = inactive

Returns: the outcome recorded for CCN(CCCCOC(=O)c1ccc(OC)c(OC)c1)C(C)Cc1ccc(OC)cc1 (stereo unspecified) in this assay.
-1

Returns: the outcome recorded for "CCCc1ncc(C(=O)O)s1" in this assay.
-1

Returns: the outcome recorded for "O=C(O)Cc1ccc2c(c1)C(=O)c1ccccc1CO2" in this assay.
-1

----------
# system name: Beta-2 adrenergic receptor (Homo sapiens) (UniProt P07550)
# test protocol: Adrenergic beta2 receptor (ADRB2) small molecule agonists, cell-based qHTS assay (AID 1963593)
# experimental parameters: CHO-ADRB2 cells, cAMP HTRF, 30 min; series mostly up to 42.5 µM
# Text: National Center for Advancing Translational Sciences [NCATS] Division of Preclinical Innovation [DPI] U.S. Environmental Protection Agency [EPA] National Institutes of Environmental Health Sciences [NIEHS] National Toxicology Program [NTP] U.S. Food and Drug Administration [FDA] Beta adrenergic receptors (Beta-ARs) belong to the G-protein coupled receptor (GPCR) superfamily, includes three subtypes - beta1, beta2, and beta3. […]
Records with an inconclusive call do not appear. The source made the active and inactive calls. Calls follow the shape of the full dose curve.
Bench note: report the call from active, inactive

Example cases with answers are listed next.
# smi, system name, answer label
records = [
    ("CC(=O)[C@H]1CC[C@H]2[C@@H]3C[C@H](C)C4=CC(=O)CC[C@]4(C)[C@H]3[C@@H](O)C[C@]12C", "Beta-2 adrenergic receptor (Homo sapiens) (UniProt P07550)", "inactive"),
    ("CCOC(=O)c1cccnc1", "Beta-2 adrenergic receptor (Homo sapiens) (UniProt P07550)", "inactive"),
    ("C=COCCCCO", "Beta-2 adrenergic receptor (Homo sapiens) (UniProt P07550)", "inactive"),
]

Returns: the outcome recorded for "C=CC(=O)OCC(CO)(COCC(COC(=O)C=C)(COC(=O)C=C)COC(=O)C=C)COC(=O)C=C" in this assay.
active

Returns: the outcome recorded for "Cc1ccc(C(=O)c2ccc(CC(=O)O)n2C)cc1" in this assay.
inactive

Returns: the outcome recorded for "CC(C)c1ccc2oc3nc(N)c(C(=O)O)cc3c(=O)c2c1" in this assay.
inactive

Returns: the outcome recorded for "Cc1nc(-c2ccc(Cl)cc2)oc1COC(C)(C)C(=O)O" in this assay.
inactive

Returns: the outcome recorded for "O=C(OCCN1CCOCC1)c1cccnc1Nc1cccc(C(F)(F)F)c1" in this assay.
inactive

Returns: the outcome recorded for "CC[C@H]1OC(=O)[C@H](C)[C@@H](O[C@H]2C[C@@](C)(OC)[C@@H](O)[C@H](C)O2)[C@H](C)[C@@H](O[C@@H]2O[C@H](C)C[C@H](N(C)C)[C@H]2O)[C@](C)(O)C[C@@H](C)C(=O)[C@H](C)[C@@H](O)[C@]1(C)O" in this assay.
inactive
